- Assayed System: human γδ TCR (Vγ9Vδ2) on human Vδ2+ γδ T cells (human) (UniProt A0JD36)
- Procedure Summary: flow cytometry on expanded human Vδ2+ γδ T cells, nonlinear fit
Entries and their Kd
Supply the numeric figure in nM, leaving out any unit text.

Binder	Units Of Measure	Kd
hu1D7v101 VHH-hIgG1 Fc-NNT (monomeric) (VHH) VHH: EVQLLESGGGEVQPGGSLRLSCVASRGKISQYRMGWYRQAPGKERELVAHISNTGDAAEYVDSVKDRFTISRDSTKNALYLQMSSLRAEDTAVYKCAAVEDILAWGQGTLVTVRP	nM	270
hu1D7v158-4 VHH-hIgG1 Fc-NNT (monomeric) (VHH) VHH: EVQLLESGGGEVQPGGSLRLSCVASRGKISQYRMGWYRQAPGKQRELVAHISNTGDAAEYAAPVKGRFTISRDNAKNALYLQMNSLRAEDTAVYKCNTVEDILAWGQGTLVTVEP	nM	3.13
hu1D7v16 VHH-hIgG1 Fc-NNT (monomeric) (VHH) VHH: EVQLLESGGGEVQPGGSLRLSCVASRGKISQYRMGWYRQAPGKGLEWVAHISNTGDATEYVDSVKGRFTISRDSTKNAVYLQMSSLRAEDTAVYKCNSVEDILAWGQGTLVTVKP	nM	24.6

// query Kd value for entry hu1D7v71 VHH-hIgG1 Fc-NNT (monomeric) (VHH) VHH: EVQLLESGGGEVQPGGSLRLSCVASRGKISQYRMGWYRQAPGKERELVAHISNTGDAAEYVDVVKDRFTISRDSTKNALYLQMSSLRAEDTAVYKCNSVEDILAWGQGTLVTVRP
135
